Cited source for all entries: ChEMBL document CHEMBL4251736

system: Human immunodeficiency virus 1; assay: Antiviral activity against wild type HIV1 3B infected in human MT4 cells assessed as inhibition of virus-induced cytopathic effect after 5 days by MTT assay; type: functional, organism-based; settings: Human immunodeficiency virus 1, 3B, MT4, 120 h
pEC50: −log10 of the molar value.
Reported pEC50 is given for each of the following molecules.
MEASURED_ENDPOINT: pEC50

>>> df
                                    molecule                  assayed_target  relation_operator  test_result
 0  Cc1cc(C#N)cc(C)c1Oc1nc(Nc2ccc(C#N)cc2)ncc1SCC(=O)NCC1CCCO1 (stereo not drawn)  Human immunodeficiency virus 1                  >         8.00
 1  Cc1cc(C#N)cc(C)c1Oc1nc(Nc2ccc(C#N)cc2)ncc1SCC(=O)N1CCN(C(=O)OC(C)(C)C)CC1  Human immunodeficiency virus 1                  =         7.05
 2  COC(=O)CSc1cnc(Nc2ccc(C#N)cc2)nc1Oc1c(C)cc(C#N)cc1C  Human immunodeficiency virus 1                  =         7.18
 3  Cc1cc(C#N)cc(C)c1Oc1nc(Nc2ccc(C#N)cc2)ncc1SCC(=O)NCc1ccc(O)cc1  Human immunodeficiency virus 1                  >         8.00
 4  Cc1cc(C#N)cc(C)c1Oc1nc(Nc2ccc(C#N)cc2)ncc1SCC(=O)N1CCSCC1  Human immunodeficiency virus 1                  =         7.42
 5  COC(=O)CCS(=O)(=O)c1cnc(Nc2ccc(C#N)cc2)nc1Oc1c(C)cc(C#N)cc1C  Human immunodeficiency virus 1                  =         5.81
 6  Cc1cc(C#N)cc(C)c1Oc1nc(Nc2ccc(C#N)cc2)ncc1SCC(=O)NC1CCN(C(=O)OC(C)(C)C)CC1  Human immunodeficiency virus 1                  >         8.00
 7  COCCNC(=O)CSc1cnc(Nc2ccc(C#N)cc2)nc1Oc1c(C)cc(C#N)cc1C  Human immunodeficiency virus 1                  =         8.42
 8  C#CCNC(=O)CSc1cnc(Nc2ccc(C#N)cc2)nc1Oc1c(C)cc(C#N)cc1C  Human immunodeficiency virus 1                  =         8.62
 9  COC(=O)CCSc1cnc(Nc2ccc(C#N)cc2)nc1Oc1c(C)cc(C#N)cc1C  Human immunodeficiency virus 1                  =         7.22
10  Cc1cc(C#N)cc(C)c1Oc1nc(Nc2ccc(C#N)cc2)ncc1SCC(=O)N1CC[C@H](NC(=O)OC(C)(C)C)C1  Human immunodeficiency virus 1                  =         7.47
11  Cc1cc(C#N)cc(C)c1Oc1nc(Nc2ccc(C#N)cc2)ncc1SCC(=O)Nc1ccc(S(C)(=O)=O)cc1  Human immunodeficiency virus 1                  >         8.00
12  Cc1cc(C#N)cc(C)c1Oc1nc(Nc2ccc(C#N)cc2)ncc1SCC(=O)NCC1CC1  Human immunodeficiency virus 1                  =         8.42
13  Cc1cc(C#N)cc(C)c1Oc1nc(Nc2ccc(C#N)cc2)ncc1SCC(=O)NCCCN1CCOCC1  Human immunodeficiency virus 1                  =         8.59

###

test system: Human immunodeficiency virus 1; experiment: Antiviral activity against HIV1 harboring reverse transcriptase L100I mutant infected in human MT4 cells assessed as inhibition of viral replication after 5 days by MTT assay; format: functional, organism-based; conditions: Human immunodeficiency virus 1, MT4, 120 h
pEC50: −log10 of the molar value.
Entries annotated with measured pEC50
MEASURED_ENDPOINT: pEC50

In [3]: df
Out[3]:
                              smiles_record  test_result
0  Cc1cn([C@H]2C[C@H](N=[N+]=[N-])[C@@H](CO)O2)c(=O)[nH]c1=O         8.08
1  Cc1cc(C#N)cc(C)c1Oc1nc(Nc2ccc(C#N)cc2)ncc1SCC(=O)NCCCN1CCOCC1         8.19
2  C#CCNC(=O)CSc1cnc(Nc2ccc(C#N)cc2)nc1Oc1c(C)cc(C#N)cc1C         8.11

###

biological target: Human immunodeficiency virus type 1 reverse transcriptase (Human immunodeficiency virus 1); assay: Inhibition of recombinant wild type HIV1 reverse transcriptase assessed as decrease in biotin-dUTP incorporation using DIG-labeled dUTP/biotin-labeled dUTP and dTTP as template and viral nucleotides after 1 hr by ELISA
Below, each entry is listed alongside its reported IC50.
MEASURED_ENDPOINT: IC50

                              smiles_record                            assayed_target  measured_endpoint   test_result
0  Cc1cc(C#N)cc(C)c1Oc1nc(Nc2ccc(C#N)cc2)ncc1SCC(=O)NCCCN1CCOCC1  Human immunodeficiency virus type 1 reverse transcriptase (Human immunodeficiency virus 1)               IC50   84 to 86 nM
1  C=CCNC(=O)CSc1cnc(Nc2ccc(C#N)cc2)nc1Oc1c(C)cc(C#N)cc1C  Human immunodeficiency virus type 1 reverse transcriptase (Human immunodeficiency virus 1)               IC50  13 to 863 nM
2  Cc1cc(C#N)cc(C)c1Oc1nc(Nc2ccc(C#N)cc2)ncc1SCC(=O)NCCN1CCOCC1  Human immunodeficiency virus type 1 reverse transcriptase (Human immunodeficiency virus 1)               IC50  13 to 863 nM
3  COC(=O)CSc1cnc(Nc2ccc(C#N)cc2)nc1Oc1c(C)cc(C#N)cc1C  Human immunodeficiency virus type 1 reverse transcriptase (Human immunodeficiency virus 1)               IC50  13 to 863 nM
4  C#CCNC(=O)CSc1cnc(Nc2ccc(C#N)cc2)nc1Oc1c(C)cc(C#N)cc1C  Human immunodeficiency virus type 1 reverse transcriptase (Human immunodeficiency virus 1)               IC50         23 nM
5  COC(=O)CS(=O)(=O)c1cnc(Nc2ccc(C#N)cc2)nc1Oc1c(C)cc(C#N)cc1C  Human immunodeficiency virus type 1 reverse transcriptase (Human immunodeficiency virus 1)               IC50  13 to 863 nM
6  COC(=O)CCS(=O)(=O)c1cnc(Nc2ccc(C#N)cc2)nc1Oc1c(C)cc(C#N)cc1C  Human immunodeficiency virus type 1 reverse transcriptase (Human immunodeficiency virus 1)               IC50  13 to 863 nM
7  COC(=O)CCSc1cnc(Nc2ccc(C#N)cc2)nc1Oc1c(C)cc(C#N)cc1C  Human immunodeficiency virus type 1 reverse transcriptase (Human immunodeficiency virus 1)               IC50  13 to 863 nM
8  Cc1cc(C#N)cc(C)c1Oc1nc(Nc2ccc(C#N)cc2)ncc1SCC(=O)NCc1ccc(O)cc1  Human immunodeficiency virus type 1 reverse transcriptase (Human immunodeficiency virus 1)               IC50  13 to 863 nM

###

Parameter EC50: see the listing below.
tested on: Human immunodeficiency virus 1; assay: Antiviral activity against HIV1 harboring reverse transcriptase Y181C mutant infected in human MT4 cells assessed as inhibition of viral replication after 5 days by MTT assay; format: functional, organism-based; details: Human immunodeficiency virus 1, MT4, 120 h
MEASURED_ENDPOINT: EC50 (µM)

                                   compound                  assayed_target  test_result
0  Cc1cc(C#N)cc(C)c1Oc1nc(Nc2ccc(C#N)cc2)ncc1SCC(=O)NCCCN1CCOCC1  Human immunodeficiency virus 1       0.0116
1  Cc1cn([C@H]2C[C@H](N=[N+]=[N-])[C@@H](CO)O2)c(=O)[nH]c1=O [ZIDOVUDINE]  Human immunodeficiency virus 1       0.0141

###

Below, each entry is listed alongside its reported CC50 at 120 h.
assay: Cytotoxicity against human MT4 cells assessed as decrease in cell viability after 5 days by MTT assay; type: cell-based
MEASURED_ENDPOINT: CC50 at 120 h

                              smiles_record    test_result
0  Cc1cc(C#N)cc(C)c1Oc1nc(Nc2ccc(C#N)cc2)ncc1SCC(=O)NCCN1CCN(C(=O)OC(C)(C)C)CC1  5.1 to 149 µM
1  C#CCNC(=O)CSc1cnc(Nc2ccc(C#N)cc2)nc1Oc1c(C)cc(C#N)cc1C  5.1 to 149 µM
2  Cc1cc(C#N)cc(C)c1Oc1nc(Nc2ccc(C#N)cc2)ncc1SCC(=O)N1CC[C@H](NC(=O)OC(C)(C)C)C1  5.1 to 149 µM
3  Cc1cc(C#N)cc(C)c1Oc1nc(Nc2ccc(C#N)cc2)ncc1SCC(=O)N1CCN(C(=O)OC(C)(C)C)CC1  5.1 to 149 µM
4  Cc1cc(C#N)cc(C)c1Oc1nc(Nc2ccc(C#N)cc2)ncc1SCC(=O)NC1CCN(C(=O)OC(C)(C)C)CC1  5.1 to 149 µM
5  C=CCNC(=O)CSc1cnc(Nc2ccc(C#N)cc2)nc1Oc1c(C)cc(C#N)cc1C  5.1 to 149 µM
6  Cc1cc(C#N)cc(C)c1Oc1nc(Nc2ccc(C#N)cc2)ncc1SCC(N)=O  5.1 to 149 µM
7  Cc1cc(C#N)cc(C)c1Oc1nc(Nc2ccc(C#N)cc2)ncc1SCC(=O)NCCCN1CCOCC1        27.2 µM
